Tested on: PRKAA1
Design: species or system human, MV4-11 + K-562 + COLO205 + SK-N-BE2 + OVCAR-8
Details: read-out: apparent Kd; compound concentrations:100 nM and 1000 nM (sheet 'Samples'); n = 1
Here the recorded potency estimated from few doses is given for each entry.
The reply should be a number in nM, with the unit left off.

Some compounds with recorded potency estimated from few doses:
[[record]]
compound = "COc1ccc(C[C@@H](CN)NC(=O)c2cc(Br)c(-c3ccnc4[nH]ccc34)s2)cc1.COc1ccc(C[C@@H](CN)NC(=O)c2cc(Br)c(-c3ccnc4[nH]ccc34)s2)cc1.Cl.Cl [GSK1389063A]"
reported_measurement = 1570

[[record]]
compound = "Cl.Cl.NCC(C(=O)Nc1cc(Br)c(-c2ccnc3[nH]ccc23)s1)c1ccccc1.NCC(C(=O)Nc1cc(Br)c(-c2ccnc3[nH]ccc23)s1)c1ccccc1 (stereo not drawn) [GSK1269851A]"
reported_measurement = 548

[[record]]
compound = "Cl.Cn1c(=O)c(Cc2ccc(F)cc2F)cc2cnc(NC3CCOCC3)nc21"
reported_measurement = 706

[[record]]
compound = "CN1C[C@@H]2Cn3c(c(C4=C(c5cn(C)c6ccccc56)C(=O)NC4=O)c4ccccc43)C[C@H]2C1.Cl"
reported_measurement = 248

[[record]]
compound = "NCCNS(=O)(=O)c1ccc(-c2ccnc3[nH]ccc23)cc1 [GSK977617A]"
reported_measurement = 453


Now let's try a different one.
// returns reported potency estimated from few doses for input "CC(=O)N[C@@H](Cc1ccc(OP(=O)(O)O)cc1)C(=O)N[C@H]1CCC(=O)N2CCC[C@@H](C(=O)NCc3ccc(Cl)cc3)N2C1=O"
801

----------
Tested on: LATS1;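 note: competition pulldown with Kinobeads ε in cell lysates, inhibitor preincubated 45 min at 4 °C, bound kinases quantified by LC–MS/MS against DMSO control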
Parameters: species or system human, MV4-11 + K-562 + COLO205 + SK-N-BE2 + OVCAR-8
Conditions: compound concentrations:0.3nM, 1nM, 3nM, 10nM, 30nM, 100nM, 300nM, 1000nM,R2:0.97889671835051595,slope:1.6751561590983699,EC50 Standard Error, by the legend:Standard error of the EC50 estimation as provided by the drc package.
READOUT: EC50 (nM)
The reply should be a number in nM, with the unit left off.

// returns reported EC50 for input CCn1c(-c2nonc2N)nc2c(C#CC(C)(C)O)nc(OCCNC)cc21.Cl [GSK949675A]
238

----------
Test system: PSMC3
Parameters: species or system human, MV4-11 + K-562 + COLO205 + SK-N-BE2 + OVCAR-8
Details: read-out: apparent Kd; compound concentrations:100 nM and 1000 nM (sheet 'Samples'); n = 1
READOUT: potency estimated from few doses (µM)
The reply should be a number in µM, with the unit left off.

[[record]]
molecule = "Cc1cc(Nc2nc(-c3cccc(C)n3)nc3ccccc23)ccn1 [GW872411X]"
test_system = "PSMC3"
readout = "potency estimated from few doses"
units_symbol = "µM"
reported_measurement = 1.81

[[record]]
molecule = "Fc1ccc(-c2nc[nH]c2-c2ccncc2)cc1"
test_system = "PSMC3"
readout = "potency estimated from few doses"
units_symbol = "µM"
reported_measurement = 1.19

[[record]]
molecule = "CN1CCC(n2cnc(-c3ccc(F)cc3)c2-c2ccnc(N)n2)CC1"
test_system = "PSMC3"
readout = "potency estimated from few doses"
units_symbol = "µM"
reported_measurement = 1.92


// returns reported potency estimated from few doses for input "CCCCCNC(=O)[C@@H]1CCCN2C(=O)CC[C@H](NC(=O)[C@H](Cc3ccc(OP(=O)(O)O)cc3)NC(C)=O)C(=O)N12"
1.91

----------
System: DDR1
Design: species or system human, MV4-11 + K-562 + COLO205 + SK-N-BE2 + OVCAR-8
Conditions: read-out: apparent Kd; compound concentrations:100 nM and 1000 nM (sheet 'Samples'); n = 1
Quick rule for you: potency estimated from few doses at 0.5 µM or higher means met, lower means not met.

[[record]]
compound = "Cl.Cl.Oc1cc(-c2nc(-c3ccccc3)[nH]c2-c2ccncc2)ccc1Cl.Oc1cc(-c2nc(-c3ccccc3)[nH]c2-c2ccncc2)ccc1Cl"
class_name = "met"

[[record]]
compound = "CCn1c(=O)c(Oc2ccc(F)cc2F)cc2cnc(NC3CCOCC3)nc21"
class_name = "met"

[[record]]
compound = "CN1C[C@@H]2Cn3c(c(C4=C(c5cn(C)c6ccccc56)C(=O)NC4=O)c4ccccc43)C[C@H]2C1.Cl"
class_name = "met"

[[record]]
compound = "CCN(CC)CCOc1ccc(Nc2ncc3cc(-c4c(Cl)cccc4Cl)c(=O)n(C)c3n2)cc1"
class_name = "not met"

[[record]]
compound = "COC(=O)Nc1nc2ccc(Oc3ccc(NC(=O)Nc4cc(C(F)(F)F)ccc4F)cc3)cc2[nH]1.Cl [GW654607A]"
class_name = "met"


Please examine the following record next.
# bool: potency estimated from few doses of COC(=O)Nc1nc2cc(Oc3ccc(NC(=O)Nc4cccc(SC)c4)cc3)ccc2[nH]1.Cl [GW697999A] >= 0.5 µM
not met

----------
Here the recorded potency estimated from few doses is given for each entry.
Tested on: ADRBK1
Set-up: species or system human, MV4-11 + K-562 + COLO205 + SK-N-BE2 + OVCAR-8
Details: read-out: apparent Kd; compound concentrations:100 nM and 1000 nM (sheet 'Samples'); n = 1
The reply should be a number in nM, with the unit left off.

[[record]]
compound = "Cc1ccc(NC(=O)CC2CC2)cc1-c1ccc(C(=O)NCC2CC2)cc1 [GW796920X]"
test_system = "ADRBK1"
units_symbol = "nM"
reported_measurement = 1860

[[record]]
compound = "Nc1nc(-c2ccc3c(N)n[nH]c3c2)cc(N2CCCC(NC(=O)c3ccccc3)C2)n1 (centres unmarked) [GSK2286775B]"
test_system = "ADRBK1"
units_symbol = "nM"
reported_measurement = 2050

[[record]]
compound = "COc1ccc(O)c(C(=O)c2ccc(C(=O)O[C@@H]3CCCNC[C@H]3NC(=O)c3ccncc3)cc2)c1F.Cl [RO0480500-002]"
test_system = "ADRBK1"
units_symbol = "nM"
reported_measurement = 119

[[record]]
compound = "C[C@@H](Cn1ncnn1)Nc1ncc2cc(Oc3ccc(F)cc3F)c(=O)n(C)c2n1 [RO5067310-000]"
test_system = "ADRBK1"
units_symbol = "nM"
reported_measurement = 2270

[[record]]
compound = "COc1ccccc1-c1cc(/C=C2\\C(=O)Nc3ncc(Br)cc32)cc(Br)c1O [GW442130X]"
test_system = "ADRBK1"
units_symbol = "nM"
reported_measurement = 1960


API: value(readout= potency estimated from few doses, system= ADRBK1, query= COC(=O)Nc1nc2ccc(Oc3ccc(NC(=O)Nc4cc(C(F)(F)F)ccc4F)cc3)cc2n1C.Cl [GW692089A] )
1500

API: value(readout= potency estimated from few doses, system= ADRBK1, query= O=C(O)C(F)(F)F.O=C(O[C@H]1CN[C@H](C#Cc2cc3ncnc(Nc4ccc(Cc5ccccc5)cc4)c3s2)C1)N1CCOCC1 [GSK238583A] )
1670

API: value(readout= potency estimated from few doses, system= ADRBK1, query= CS(=O)(=O)Cc1ccc(Nc2nccc(-c3c(-c4cccc(NC(=O)C5CCCCC5)c4)nn4ncccc34)n2)cc1 [GSK350559A] )
1690

API: value(readout= potency estimated from few doses, system= ADRBK1, query= O=c1cc(N2CCOCC2)nc2n(Cc3ccccc3F)ccn12 [GSK2297428A] )
1690

API: value(readout= potency estimated from few doses, system= ADRBK1, query= NS(=O)(=O)c1ccc(Nc2ncc(-c3ccccc3)o2)cc1 [GW572399X] )
1910

API: value(readout= potency estimated from few doses, system= ADRBK1, query= CCc1cc(Nc2nccc(-c3c(-c4ccc(OC)c(C(=O)Nc5c(F)cccc5F)c4)nc4ccccn34)n2)c(OC)cc1N1CCC(N2CCN(S(C)(=O)=O)CC2)CC1 [GSK1904529] )
2030

API: value(readout= potency estimated from few doses, system= ADRBK1, query= O=C(NCCCN1CCOC1=O)c1cnc(NCc2cc(Cl)ccc2Cl)nc1NC1CCCC1 [PFE-PKIS_12] )
1110

API: value(readout= potency estimated from few doses, system= ADRBK1, query= CCn1c(-c2nonc2N)nc2cnc(Oc3cccc(NC(=O)c4ccc(OCCN5CCOCC5)cc4)c3)cc21.Cl [GSK269962B] )
1480

API: value(readout= potency estimated from few doses, system= ADRBK1, query= CNC(=O)c1ccc(C)c(-n2c(C)cc(OCc3ccc(F)cc3F)c(Br)c2=O)c1 [PFE-PKIS_41] )
1490

----------
Test system: GRK6
Design: species or system human, MV4-11 + K-562 + COLO205 + SK-N-BE2 + OVCAR-8
Conditions: read-out: apparent Kd; compound concentrations:100 nM and 1000 nM (sheet 'Samples'); n = 1
Here the recorded potency estimated from few doses is given for each entry.
The reply should be a number in µM, with the unit left off.

Some molecules with recorded potency estimated from few doses:
[[record]]
molecule = "COc1cc2c(cc1Nc1nc(Nc3ccsc3C(N)=O)c3cc[nH]c3n1)N(C(=O)CN(C)C)CCC2(C)C [GSK2163632A]"
test_system = "GRK6"
reported_measurement = 2.05

[[record]]
molecule = "COc1cc(Nc2cnc(C#N)c(O[C@H](C)CN(C)C)n2)ncc1-c1cnn(C)c1"
test_system = "GRK6"
reported_measurement = 1.23

[[record]]
molecule = "Cc1cnc(Nc2ccc(F)cc2Cl)nc1-c1c[nH]c(C(=O)N[C@H](CO)c2cccc(Cl)c2)c1 [Vertex11e]"
test_system = "GRK6"
reported_measurement = 1.29

[[record]]
molecule = "NC(=O)c1cccnc1COc1cc(-c2ccc(N3CCOCC3)nc2)cc2ncccc12"
test_system = "GRK6"
reported_measurement = 1.7

[[record]]
molecule = "Cl.Cl.NCC(NCc1ccc(-c2ccnc3[nH]ccc23)s1)c1ccccc1.NCC(NCc1ccc(-c2ccnc3[nH]ccc23)s1)c1ccccc1 (stereo not shown) [GSK1321565A]"
test_system = "GRK6"
reported_measurement = 1.6

[[record]]
molecule = "Cn1c(=O)c(Oc2ccc(F)cc2F)cc2cnc(NC3CCOCC3)nc21"
test_system = "GRK6"
reported_measurement = 1.35


// returns reported potency estimated from few doses for input Cc1ccc(-n2nc(C(C)(C)C)cc2NC(=O)Nc2ccc(OCCN3CCOCC3)cc2)cc1 [BIRB0876BS]
2.17
